EXPERIMENT NOTES: Tissue distribution following oral administration of reference compounds and the disclosed compounds
Assay type: in vivo, rats
STATED CONDITIONS: rat; drug level in the liver 1 hour after oral administration at 5 mg/kg dose in rats (Table 1); read-out: Drugliver
Experimental: The liver specificity of the disclosed compounds is compared relative to a corresponding active compound in liver and other organs that could be targets of toxicity. Reference compounds and the cyclic deoxyribonucleotide, acetal, and hemiaminal compounds are administered at 5-50 mg/kg to fasted rats by oral gavage. […]
PROPERTY NAME: concentration at 1 h (ng/g)
Numbers only, in ng/g.

For each of the items listed, what is its concentration at 1 h?
1. CCOCOC1[C@@H](O)[C@H](n2cc(F)c(=O)n(COCC)c2=O)O[C@@H]1C (stereo in doubt) [Compound 109]
2. C[C@H]1O[C@@H](n2cc(F)c(=O)[nH]c2=O)[C@@H]2OC(c3ccc(O)cc3)O[C@@H]21 (some centres unmarked) [Compound 116]

373
978
